# EXPERIMENTAL TARGET: PDE1C (Homo sapiens, UniProt Q14123)
# Construct: made in house; host or cells: SF9 insect cells (crude lysate used as enzyme source)
# ASSAY DETAILS: PDE enzymatic activity assay (SPA), PDE1C, cAMP as substrate
# Format: biochemical
# PARTICULARS: ratio IC50 PDE1C / IC50 PDE9A; for illustrative purposes
Exam item: assign y to entries whose Selectivity = IC50 PDE 1C/IC50 PDE9A (both nanomolar) is below 9 and n to entries at or above 9. Note that a value of exactly 9 receives n.

{"columns": ["MOLECULE", "EXPERIMENTAL TARGET", "ANSWER LABEL"],
 "data": [
  ["Cc1ccc(F)cc1-n1ncc2c(=O)[nH]c(Cc3ccccc3OC(F)(F)F)nc21 [Example 14]", "PDE1C (Homo sapiens, UniProt Q14123)", "n"],
  ["CCOc1ccc(Cl)c(-n2ncc3c(=O)[nH]c(Cc4ccccc4OC(F)(F)F)nc32)c1 [Example 20]", "PDE1C (Homo sapiens, UniProt Q14123)", "y"],
  ["Cc1ccncc1-n1ncc2c(=O)[nH]c(Cc3ccccc3OC(F)(F)F)nc21 [Example 1]", "PDE1C (Homo sapiens, UniProt Q14123)", "n"],
  ["O=c1[nH]c(Cc2ccccc2OC(F)(F)F)nc2c1cnn2-c1cccc(F)c1F [Example 30-4]", "PDE1C (Homo sapiens, UniProt Q14123)", "y"],
  ["CC(=O)Nc1cccc(-n2ncc3c(=O)[nH]c(Cc4ccccc4OC(F)(F)F)nc32)c1 [Example 30-5]", "PDE1C (Homo sapiens, UniProt Q14123)", "n"],
  ["COc1c(F)cccc1-n1ncc2c(=O)[nH]c(Cc3ccccc3OC(F)(F)F)nc21 [Example 30]", "PDE1C (Homo sapiens, UniProt Q14123)", "y"],
  ["O=c1[nH]c(Cc2ccccc2OC(F)(F)F)nc2c1cnn2-c1cccc(F)c1 [Example 26]", "PDE1C (Homo sapiens, UniProt Q14123)", "n"],
  ["O=c1[nH]c(Cc2ccccc2OC(F)(F)F)nc2c1cnn2-c1ccc(F)cc1 [Example 11]", "PDE1C (Homo sapiens, UniProt Q14123)", "n"],
  ["O=c1[nH]c(Cc2ccccc2OC(F)(F)F)nc2c1cnn2-c1cccnc1 [Example 33]", "PDE1C (Homo sapiens, UniProt Q14123)", "y"],
  ["CCOc1cc(Cl)c(-n2ncc3c(=O)[nH]c(Cc4ccccc4OC(F)(F)F)nc32)cc1C [Example 27]", "PDE1C (Homo sapiens, UniProt Q14123)", "n"],
  ["O=c1[nH]c(Cc2ccccc2OC(F)(F)F)nc2c1cnn2-c1cc(Br)ccc1Cl [Example 6]", "PDE1C (Homo sapiens, UniProt Q14123)", "n"],
  ["Cc1ccccc1-n1ncc2c(=O)[nH]c(Cc3ccccc3OC(F)(F)F)nc21 [Example 2]", "PDE1C (Homo sapiens, UniProt Q14123)", "n"],
  ["O=c1[nH]c(Cc2ccccc2OC(F)(F)F)nc2c1cnn2-c1cnccc1C(F)(F)F [Example 32]", "PDE1C (Homo sapiens, UniProt Q14123)", "n"],
  ["O=C(c1ccc(Cl)c(-n2ncc3c(=O)[nH]c(Cc4ccccc4OC(F)(F)F)nc32)c1)N1CCCCC1 [Example 35]", "PDE1C (Homo sapiens, UniProt Q14123)", "n"]
]}
